Origin of values: the Human Domainome abundance scans (Beltran et al. 2025)

Each entry below carries its reported abundance fitness.
B1: Chromodomain-helicase-DNA-binding protein 3, residues 374 to 426; numbered along this chain, Q12873 (parent)
chain: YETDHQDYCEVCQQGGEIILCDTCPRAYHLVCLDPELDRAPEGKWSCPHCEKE

Variants of: B1
experiment-description: abundance fitness (aPCA) (normalised: wild type 0, dead -1); higher = more abundant; growth selection in yeast, the domain comes from the species named
test-settings: Homo sapiens

See these solved cases before continuing.
L30A : 0.053
C12L : -0.866
I19Q : 0.068
I19K : 0.19
Q13M : 0.084
I19G : -0.177

I am curious: what abundance fitness value has been reported for D34H ?
-0.385

I am curious: what abundance fitness value has been reported for V11N ?
0.182
